# system_tested: SIRT7 (recombinant human SIRT7, non-tagged) (Homo sapiens, UniProt Q9NRC8)
# Sequence (Q9NRC8 whole entry): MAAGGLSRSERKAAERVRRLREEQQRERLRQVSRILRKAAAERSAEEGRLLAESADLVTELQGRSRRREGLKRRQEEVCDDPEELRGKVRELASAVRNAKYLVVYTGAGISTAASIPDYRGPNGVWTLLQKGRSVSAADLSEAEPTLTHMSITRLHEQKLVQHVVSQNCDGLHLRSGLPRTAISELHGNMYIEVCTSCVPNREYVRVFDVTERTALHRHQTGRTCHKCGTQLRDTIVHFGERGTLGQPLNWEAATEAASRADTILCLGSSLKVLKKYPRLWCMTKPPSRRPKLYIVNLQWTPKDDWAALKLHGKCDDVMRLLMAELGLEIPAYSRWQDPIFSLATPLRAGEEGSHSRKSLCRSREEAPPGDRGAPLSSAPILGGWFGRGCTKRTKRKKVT
# test_description: fluorogenic deacylase assay
Form field: pIC50 (one value per entry).
As a rule, pIC50 stands for the negative log10 of the concentration, concentration in M.

molecule | system_tested | pIC50
CCCCCCCCCCCCNC(=S)CCCCC[C@H](NC(=O)OCc1ccccc1)C(=O)N[C@H](C(=O)N[C@@H](CCC(=O)O)C(N)=O)C(C)C [compound 34, inverse thioamide 34] | SIRT7 (recombinant human SIRT7, non-tagged) (Homo sapiens, UniProt Q9NRC8) | 4.47

In the following, a different molecule is considered.
Entry CCCCCCCCCCCCNC(=O)CCCCC[C@H](NC(=O)OCc1ccccc1)C(=O)N[C@H](C(=O)N[C@@H](CCC(=O)O)C(N)=O)C(C)C [compound 33, inverse amide 33] : pIC50 on SIRT7 (recombinant human SIRT7, non-tagged) (Homo sapiens, UniProt Q9NRC8) = 4.36
